# SUBJECT OF TEST: PD-1/PD-L1 (Homo sapiens (Human), UniProt Q9NZQ7)
# Sequence (Q9NZQ7 19-238): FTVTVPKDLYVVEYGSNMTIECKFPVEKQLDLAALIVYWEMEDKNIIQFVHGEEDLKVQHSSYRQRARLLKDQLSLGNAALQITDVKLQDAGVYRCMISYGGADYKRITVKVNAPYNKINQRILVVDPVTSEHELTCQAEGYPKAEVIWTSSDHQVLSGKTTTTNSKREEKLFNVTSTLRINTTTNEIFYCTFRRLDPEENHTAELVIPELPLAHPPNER
# TEST DESCRIPTION: PD-1/PD-L1 biochemical protein-protein interaction assay (ALPHA)
# ASSAY SETUP: 0.3 nM His tagged PD-L1, 2.5 nM biotinylated Fc-PD-1, 60 minutes at 25° C., read-out: IC50 PD-L1-PD1

SMILES STR	IC50 (nM)
COc1nc(-c2cccc(-c3cccc(-c4cnc(CN[C@@H](C)CO)c(OC)n4)c3Cl)c2Cl)cnc1CNC[C@@H]1CCC(=O)N1	0.323
COc1nc(-c2cccc(-c3cccc(-c4cnc(CN5CC(O)C5)c(OC)n4)c3Br)c2F)cnc1CN1CC(O)C1	9.24
COc1nc(-c2cccc(-c3cccc(-c4cnc(CN5CC6(C5)CC(C)(O)C6)c(OC)n4)c3Cl)c2Cl)cnc1CNC[C@@H]1CCC(=O)N1	0.167
COc1nc(-c2cccc(-c3cccc(-c4cnc(CNCCO)c(OC)n4)c3Cl)c2F)cnc1CNCCO	0.213

###

# SUBJECT OF TEST: PD-1/PD-L1 (Homo sapiens (Human), UniProt Q9NZQ7)
# TEST DESCRIPTION: PD-1/PD-L1 biochemical protein-protein interaction assay (ALPHA)
# ASSAY SETUP: 0.3 nM His tagged PD-L1, 2.5 nM biotinylated Fc-PD-1, 60 minutes at 25° C., read-out: IC50 PD-L1-PD1
Could you mark each record Fulfilled if its IC50 falls strictly under 0.1 nM, and Not fulfilled if it equals or exceeds it?

MOLECULE	SUBJECT OF TEST	CLASS LABEL
COc1nc(-c2cccc(-c3cccc(-c4cnc(CN[C@@H]5C[C@@H]5F)c(OC)n4)c3Cl)c2Cl)cnc1CNC[C@@H]1CCC(=O)N1	PD-1/PD-L1 (Homo sapiens (Human), UniProt Q9NZQ7)	Not fulfilled
COc1nc(-c2cccc(-c3cccc(-c4cnc(CNC[C@@H]5CCC(=O)N5)c(OC)n4)c3Cl)c2Cl)cnc1CNCCc1cnn[nH]1	PD-1/PD-L1 (Homo sapiens (Human), UniProt Q9NZQ7)	Not fulfilled
OC1CN(Cc2cnc(-c3cccc(-c4cccc(-c5cnc(CN6CC(O)C6)cn5)c4Cl)c3Cl)cn2)C1	PD-1/PD-L1 (Homo sapiens (Human), UniProt Q9NZQ7)	Not fulfilled
COc1nc(-c2cccc(-c3cccc(-c4cnc(CN[C@H]5C[C@@H](OC)C5)c(OC)n4)c3Cl)c2Cl)cnc1CNC[C@@H]1CCC(=O)N1	PD-1/PD-L1 (Homo sapiens (Human), UniProt Q9NZQ7)	Fulfilled
COc1nc(-c2cccc(-c3cccc(-c4cnc(CNC[C@@H]5CCC(=O)N5)c(OC)n4)c3Br)c2F)cnc1CNC[C@@H]1CCC(=O)N1	PD-1/PD-L1 (Homo sapiens (Human), UniProt Q9NZQ7)	Not fulfilled
COc1nc(-c2cccc(-c3cccc(-c4cnc(CNC[C@@H]5CCC(=O)N5)c(OC)n4)c3Cl)c2Cl)cnc1CNCC(O)C(F)(F)F (stereo partly drawn)	PD-1/PD-L1 (Homo sapiens (Human), UniProt Q9NZQ7)	Not fulfilled
COc1nc(-c2cccc(-c3cccc(-c4cnc(CN(CC5CC5)C[C@@H]5CCC(=O)N5)c(OC)n4)c3Cl)c2Cl)cnc1CNC[C@@H]1CCC(=O)N1	PD-1/PD-L1 (Homo sapiens (Human), UniProt Q9NZQ7)	Not fulfilled
COc1nc(-c2cccc(-c3cccc(-c4cnc(CN5CC[C@@H](O)[C@@H](F)C5)c(OC)n4)c3Cl)c2Cl)cnc1CNC[C@@H]1CCC(=O)N1	PD-1/PD-L1 (Homo sapiens (Human), UniProt Q9NZQ7)	Not fulfilled
COc1nc(-c2cccc(-c3cccc(-c4cnc5c(CN6CC7(C6)CN(C(C)=O)C7)nn(C)c5n4)c3Cl)c2Cl)cnc1CN1CC2(C1)CN(C(C)=O)C2	PD-1/PD-L1 (Homo sapiens (Human), UniProt Q9NZQ7)	Not fulfilled
CN(C)c1nc(-c2cccc(-c3cccc(-c4cnc(CN5CC6(CCC(=O)N6)C5)c(Cl)n4)c3Cl)c2Cl)cnc1CN1CC2(CCC(=O)N2)C1	PD-1/PD-L1 (Homo sapiens (Human), UniProt Q9NZQ7)	Fulfilled
COc1nc(-c2cccc(-c3cccc(-c4cnc(CNC5CC6(C5)CN(C(C)=O)C6)c(OC)n4)c3Cl)c2Cl)cnc1CNC[C@H]1CCC(=O)N1	PD-1/PD-L1 (Homo sapiens (Human), UniProt Q9NZQ7)	Not fulfilled
COc1nc(-c2cccc(-c3cccc(-c4cc(C)c(CN5CC6(CCC(=O)N6)C5)c(OC)n4)c3F)c2Cl)cnc1CN1CC2(CCC(=O)N2)C1	PD-1/PD-L1 (Homo sapiens (Human), UniProt Q9NZQ7)	Fulfilled
COc1nc(-c2cccc(-c3cccc(-c4cc(C)c(CNC[C@@H]5CCC(=O)N5)c(OC)n4)c3Cl)c2Cl)cnc1CNC[C@@H]1CCC(=O)N1	PD-1/PD-L1 (Homo sapiens (Human), UniProt Q9NZQ7)	Fulfilled
COc1nc(-c2cccc(-c3cccc(-c4cnc(CN5CCC[C@@H](F)C5)c(OC)n4)c3Cl)c2Cl)cnc1CNC[C@@H]1CCC(=O)N1	PD-1/PD-L1 (Homo sapiens (Human), UniProt Q9NZQ7)	Not fulfilled
COc1nc(-c2cccc(-c3cccc(-c4ccc5c(CN6CC7(C6)CN(C(C)=O)C7)cn(C)c5n4)c3Cl)c2Cl)cnc1CN1CC2(C1)CN(C(C)=O)C2	PD-1/PD-L1 (Homo sapiens (Human), UniProt Q9NZQ7)	Fulfilled
COc1nc(-c2cccc(-c3cccc(-c4cnc(CNC[C@@H]5CCC(=O)N5)c(OC)n4)c3Cl)c2Cl)cnc1CNCCCS(N)(=O)=O	PD-1/PD-L1 (Homo sapiens (Human), UniProt Q9NZQ7)	Fulfilled
COc1nc(-c2cccc(-c3cccc(-c4cnc(CN[C@@H]5CCC[C@@H]5O)c(OC)n4)c3Cl)c2Cl)cnc1CNC[C@@H]1CCC(=O)N1	PD-1/PD-L1 (Homo sapiens (Human), UniProt Q9NZQ7)	Fulfilled
COc1nc(-c2cccc(-c3cccc(-c4cnc(CNC5CC(CC(N)=O)C5)c(OC)n4)c3Cl)c2Cl)cnc1CNC[C@@H]1CCC(=O)N1 (stereo partly drawn)	PD-1/PD-L1 (Homo sapiens (Human), UniProt Q9NZQ7)	Not fulfilled
COc1nc(-c2cccc(-c3cccc(-c4cnc(CN5CC(c6ccccc6)C5)c(OC)n4)c3Cl)c2Cl)cnc1CNC[C@@H]1CCC(=O)N1	PD-1/PD-L1 (Homo sapiens (Human), UniProt Q9NZQ7)	Not fulfilled
COc1nc(-c2cccc(-c3cccc(-c4cnc(CNC[C@@H]5CCC(=O)N5)cn4)c3Cl)c2Cl)ccc1CNC[C@@H]1CCC(=O)N1	PD-1/PD-L1 (Homo sapiens (Human), UniProt Q9NZQ7)	Not fulfilled
CCNc1nc(-c2cccc(-c3cccc(-c4cnc(CN5CC6(CCC(=O)N6)C5)c(NCC)n4)c3Cl)c2Cl)cnc1CN1CC2(CCC(=O)N2)C1	PD-1/PD-L1 (Homo sapiens (Human), UniProt Q9NZQ7)	Not fulfilled
COc1nc(-c2cccc(-c3cccc(-c4cnc(CNCc5ccn(C)n5)c(OC)n4)c3Cl)c2Cl)cnc1CNCc1ccn(C)n1	PD-1/PD-L1 (Homo sapiens (Human), UniProt Q9NZQ7)	Not fulfilled
COCC1(NCc2ncc(-c3cccc(-c4cccc(-c5cnc(CNC[C@@H]6CCC(=O)N6)c(OC)n5)c4Cl)c3Cl)nc2OC)CCC1	PD-1/PD-L1 (Homo sapiens (Human), UniProt Q9NZQ7)	Not fulfilled
